Reference source for all entries: PubChem BioAssay AID1918947

System: A498 complex spheroid viability
Experiment: Anticancer human tumor A498 cell line growth inhibition; active means viability on the fitted dose curve at most 10% of control; inactive means the rest;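 further: spheroids exposed to agents for seven days before readout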
Conditions: second compound 3.16 µM; first compound 0.00316 µM
Your answer must be one of the following: Yes (active), No (inactive)

Please review the entries below; each comes with its answer.
COMPOUND	CATEGORY LABEL
Nc1ncn(C2CC(O)C(CO)O2)c(=O)n1 (configuration not stated) + NC1CC1c1ccc(-c2cccc(O)c2)cc1	No
CC1COCCN1c1cc(-c2ccnn2C)c2ccnc(-c3ccn[nH]3)c2n1 (configuration not stated) + NC1CC1c1ccc(-c2cccc(O)c2)cc1	No
CC(C)CC(NC(=O)CNC(=O)c1cc(Cl)ccc1Cl)B1OC(=O)CC(CC(=O)O)(C(=O)O)O1 (configuration not stated) + NC1CCC(NC2CC2c2ccccc2)CC1	No
CC(C)CC(NC(=O)CNC(=O)c1cc(Cl)ccc1Cl)B1OC(=O)CC(CC(=O)O)(C(=O)O)O1 (configuration not stated) + NC1CC1c1ccc(-c2cccc(O)c2)cc1	No
CC[C@@]1(O)C(=O)OCc2c1cc1n(c2=O)Cc2cc3c(CN(C)C)c(O)ccc3nc2-1 + NC1CC1c1ccc(-c2cccc(O)c2)cc1	No
O=C(C=Cn1cnc(-c2cc(C(F)(F)F)cc(C(F)(F)F)c2)n1)NNc1cnccn1 + NC1CC1c1ccc(-c2cccc(O)c2)cc1	No

Problem: Please share the test call associated with CC1COCCN1c1cc(-c2ccnn2C)c2ccnc(-c3ccn[nH]3)c2n1 (configuration not stated) + NC1CCC(NC2CC2c2ccccc2)CC1 .
Solution: No

Problem: Please share the test call associated with COc1cc(Nc2ncc3c(n2)-c2ccc(Cl)cc2C(c2c(F)cccc2OC)=NC3)ccc1C(=O)O + NC1CC1c1ccc(-c2cccc(O)c2)cc1 .
Solution: No

Problem: Please share the test call associated with COc1cc(Nc2ncc3c(n2)-c2ccc(Cl)cc2C(c2c(F)cccc2OC)=NC3)ccc1C(=O)O + NC1CCC(NC2CC2c2ccccc2)CC1 .
Solution: No
